Could you please report measured inhibition for the items listed next?
target_under_test: Pantothenate synthetase (Mycobacterium tuberculosis (strain ATCC 25618 / H37Rv))
method_summary: Coupled enzyme confirmation of inhibitors against recombinant Mtb PanC (AID 375);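 note: 0% = full reaction with vehicle and 100% = no enzyme background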
experimental_setup: coupled enzyme assay; at 10 µM, stronger effect = higher value
Answer with a number only, understood to be in %.

Problem: Give the measured inhibition of O=C(NCCC1=CCCCC1)C1CC(=O)N(C2CCCCCC2)C1 (stereo not given) .
Result: 2

Problem: Give the measured inhibition of Cc1cc(=O)oc2ccc(OCC(=O)N(Cc3ccc(F)cc3)Cc3ccco3)cc12 .
Result: 0

Problem: Give the measured inhibition of O=C(Cn1c(=O)n(CC2CCCO2)c(=O)c2ccccc21)c1ccccc1 (stereo not given) .
Result: 0

Problem: Give the measured inhibition of O=c1[nH]c(/C(=N\O)c2ccccc2)no1 .
Result: 0

Problem: Give the measured inhibition of O=C(O)c1c(Cl)c(Cl)c(Cl)c(Cl)c1C(=O)N1CCOCC1 .
Result: 0

Problem: Give the measured inhibition of O=C1CCc2cc(S(=O)(=O)N3CCC(C(=O)NCc4ccccn4)CC3)ccc2N1 .
Result: 0

Problem: Give the measured inhibition of Cc1nnc2sc(-c3cccc(NC(=O)c4cccnc4)c3)nn12 .
Result: 0

Problem: Give the measured inhibition of C1=Nc2c(NCc3ccccc3)ncnc2Oc2ccccc21 .
Result: 0

Problem: Give the measured inhibition of CCOC(=O)c1c(C)oc2ccc(NS(=O)(=O)c3ccc4c5c(cccc35)C(=O)N4)cc12 .
Result: 3

Problem: Give the measured inhibition of CCOC(=O)N1CCC(NC(=O)c2ccc(OC)c(CN3CC(=O)N4CCCC4C3=O)c2)CC1 (stereo not given) .
Result: 0

Problem: Give the measured inhibition of COCCCNC(=O)C1CCN(C(=O)Nc2ccc(Cl)cc2)CC1 .
Result: 0

Problem: Give the measured inhibition of CCOC(=O)C1CCN(Cc2ccc(C(=O)OC)cc2)CC1 .
Result: 1

Problem: Give the measured inhibition of Cc1nc2ccc(S(=O)(=O)NC(C(=O)Nc3nccs3)C(C)C)cc2s1 (stereo not given) .
Result: 0

Problem: Give the measured inhibition of O=C(Oc1ccccc1)c1cccc(COC(=O)c2cnccn2)c1 .
Result: 5

Problem: Give the measured inhibition of Cc1nc2sc(C(c3cccc(F)c3)N3CCC(C)CC3)c(O)n2n1 (stereo not given) .
Result: 0

Problem: Give the measured inhibition of CCOc1ccccc1N(C(=O)c1ccco1)C(C(=O)NC1CCCC1)c1cccnc1 (stereo not given) .
Result: 0

Problem: Give the measured inhibition of COc1ccc(NC(=O)c2oc3ccc(S(=O)(=O)N4CCC5(CC4)OCCO5)cc3c2C)cc1 .
Result: 6

Problem: Give the measured inhibition of CCCC(=O)N1CC(=O)Nc2ccc(C)cc2C1c1ccc(F)cc1 (stereo not given) .
Result: 0

Problem: Give the measured inhibition of Cc1ccc2c(Cl)cc(Cl)c(OCc3c(C)noc3C)c2n1 .
Result: 0

Problem: Give the measured inhibition of OC1(c2cccc(C(F)(F)F)c2)CCN(c2ccc(-c3ccccc3)nn2)CC1 .
Result: 0

----------
target_under_test: Pantothenate synthetase (Mycobacterium tuberculosis (strain ATCC 25618 / H37Rv)) (UniProt P9WIL5)
Sequence (P9WIL5 whole entry, looked up): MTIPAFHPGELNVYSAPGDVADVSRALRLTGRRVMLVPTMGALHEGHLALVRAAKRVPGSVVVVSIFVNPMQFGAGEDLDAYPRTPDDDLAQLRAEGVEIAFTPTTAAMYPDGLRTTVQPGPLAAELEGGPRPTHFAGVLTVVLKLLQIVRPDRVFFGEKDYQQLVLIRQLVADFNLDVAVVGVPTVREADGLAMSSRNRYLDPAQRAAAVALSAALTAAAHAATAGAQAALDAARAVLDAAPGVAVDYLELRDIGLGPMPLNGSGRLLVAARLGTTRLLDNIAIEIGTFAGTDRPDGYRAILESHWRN
method_summary: Coupled enzyme confirmation of inhibitors against recombinant Mtb PanC (AID 375);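 note: 0% = full reaction with vehicle and 100% = no enzyme background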
experimental_setup: coupled enzyme assay; at 10 µM, stronger effect = higher value
readout_label: inhibition (%)
Answer with a number only, understood to be in %.

Problem: Give the measured inhibition of CC(C)CCNC(=O)C(c1ccco1)N(CC1CCCO1)C(=O)Cn1nnc2ccccc21 (stereo not given) .
Result: 0

Problem: Give the measured inhibition of CCN(CC)C(=O)c1sc(NC(=O)c2ccco2)c(C#N)c1C .
Result: 15

Problem: Give the measured inhibition of COCCn1c(CN2CCN(c3ccccc3F)CC2)nc2c1c(=O)n(C)c(=O)n2C .
Result: 6

Problem: Give the measured inhibition of CC(C(=O)Nc1ccccc1-c1ccccc1)N1CCN(C(=O)c2ccco2)CC1 (stereo not given) .
Result: 0

Problem: Give the measured inhibition of COc1cccc(Nc2nnc(SCC(=O)N3CC(C)OC(C)C3)s2)c1 (stereo not given) .
Result: 2

Problem: Give the measured inhibition of Cc1ccc2cc(C(c3nnnn3CC3CCCO3)N3CCc4ccccc4C3)c(=O)[nH]c2c1 (stereo not given) .
Result: 0

Problem: Give the measured inhibition of CCN(CCCNC(=O)CC1Oc2ccc(C)cc2NC1=O)Cc1ccccc1 (stereo not given) .
Result: 0

Problem: Give the measured inhibition of O=C(CN(C1CCCCC1)S(=O)(=O)c1ccccc1)NCc1cccnc1 .
Result: 0

Problem: Give the measured inhibition of CNC(=O)c1ccc(N(Cc2ccccc2C)S(C)(=O)=O)cc1 .
Result: 7

Problem: Give the measured inhibition of COc1cccc(C2C(C(=O)c3cc4ccccc4o3)=C(O)C(=O)N2CCN(C)C)c1OC (stereo not given) .
Result: 1

Problem: Give the measured inhibition of CCOc1cc2oc(=O)c3c(c2cc1Cl)CCC3 .
Result: 0

Problem: Give the measured inhibition of Cc1cc(NC(=O)CCC(=O)N(CC2CCCO2)C(C(=O)NC2CCCC2)c2ccccc2C)no1 (stereo not given) .
Result: 0

Problem: Give the measured inhibition of Cc1ccc2nc(NCCCN3CCOCC3)c(C=NCCCN3CCOCC3)c(=O)n2c1 .
Result: 0

Problem: Give the measured inhibition of CSc1nc(C)cc(Oc2ccc(=O)n(C)n2)n1 .
Result: 0

Problem: Give the measured inhibition of CCc1ccccc1NC(=O)CN(c1cccc(OC)c1)S(C)(=O)=O .
Result: 7

Problem: Give the measured inhibition of COc1ccc(OCCCC(=O)Nc2nncs2)cc1 .
Result: 0

Problem: Give the measured inhibition of Cc1ccc(C)c(N2C(=O)CN=C2Nc2ccccc2Cl)c1 .
Result: 4

Problem: Give the measured inhibition of CCOc1ccccc1NC(=O)N1CCCC1C(=O)Nc1nnc(CC)s1 (stereo not given) .
Result: 0

Problem: Give the measured inhibition of Cc1ccc(-n2ncc(C(=O)N3CCc4ccccc4C3)c2NC(=O)c2ccco2)cc1C .
Result: 0

Problem: Give the measured inhibition of CCC(=O)c1ccc(OCC(=O)N2CCc3cc(OC)c(OC)cc3C2)cc1 .
Result: 0

The measurements presented in this section are drawn from PubChem BioAssay.
